run description: in vitro
condition details: human

{"molecule": "N#Cc1ccccc1S(=O)(=O)N(Cc1ccccc1)Cc1ccccc1", "CC50 at 3 days": "> 64 µM"}
{"molecule": "CC(=O)Nc1ccc(Cl)c(C(=O)NC(Cn2ccnc2)c2ccccc2)c1 (centres unmarked)", "CC50 at 3 days": "> 55.4 µM"}
{"molecule": "COc1ccc(OC)c(S(=O)(=O)N(Cc2ccccc2)C2CCCNC2)c1 (centres unmarked)", "CC50 at 3 days": "58.5 µM"}
{"molecule": "COc1ncc(C#N)cc1S(=O)(=O)N(Cc1ccc(F)cc1)Cc1ccc(F)cc1", "CC50 at 3 days": "> 64 µM"}
{"molecule": "CONS(=O)(=O)c1cc(Cl)ccc1OC", "CC50 at 3 days": "> 64 µM"}
